Molecular target: UniProtKB Q2HPH0
Sequence (Q2HPH0 as listed by the source): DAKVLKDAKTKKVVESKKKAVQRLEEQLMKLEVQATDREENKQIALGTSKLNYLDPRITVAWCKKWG
Assay: Inhibition of calf thymus topoisomerase 1 assessed as suppression of relaxation of supercoiled pBR322 DNA at 100 uM incubated for 0.5 hrs by bromophenol blue and xylene cyanol FF staining based electrophoresis method
Active and inactive are the calls of the source. No cut-off for these calls is given here.
reportedProperty: inhibition

CCCN(C(=O)[C@H]1CC[C@H](C(=O)N(CCC)[C@H]2CC3=CC(=O)O[C@@]34C[C@@H]2N2CCCC[C@@H]24)CC1)[C@@H]1CC2=CC(=O)O[C@@]23C[C@@H]1N1CCCC[C@@H]13; Active
CCCN(C(=O)c1ccc(C(=O)N(CCC)[C@H]2CC3=CC(=O)O[C@@]34C[C@@H]2N2CCCCC24)cc1)C1CC2=CC(=O)O[C@@]23C[C@@H]1N1CCCC[C@@H]13 (single isomer, unassigned); Active
CCCN(C(=O)c1ccccc1)[C@H]1CC2=CC(=O)O[C@@]23C[C@@H]1N1CCCC[C@@H]13; Active
CCCN(C(=O)[C@H]1CCC[C@@H](C(=O)N(CCC)[C@H]2CC3=CC(=O)O[C@@]34C[C@@H]2N2CCCC[C@@H]24)C1)[C@@H]1CC2=CC(=O)O[C@@]23C[C@@H]1N1CCCC[C@@H]13; Active
O=C1C=C2C=C[C@@H]3C[C@@]2(O1)[C@H]1CCCCN31; Active

Kindly review the next molecule as well.
*Q* Tell me the measured inhibition of `CCCN(C(=O)CCCC(=O)N(CCC)[C@H]1CC2=CC(=O)O[C@@]23C[C@@H]1N1CCCC[C@@H]13)[C@@H]1CC2=CC(=O)O[C@@]23C[C@@H]1N1CCCC[C@@H]13` , please.
*A* Active

====

Molecular target: Topoisomerase I (Bos taurus)
Experiment: Inhibition of calf thymus topoisomerase 1 assessed as increase in nicked DNA at 50 uM using supercoiled pBR322 DNA incubated for 0.5 hrs by ethidium bromide staining based DNA-cleavage assay
Active and inactive are the calls of the source. No cut-off for these calls is given here.
The reply should be one of these categories: active, inactive

Example results:
CCCN(C(=O)CCCCC(=O)N(CCC)[C@H]1CC2=CC(=O)O[C@@]23C[C@@H]1N1CCCC[C@@H]13)[C@@H]1CC2=CC(=O)O[C@@]23C[C@@H]1N1CCCC[C@@H]13; inactive
CC[C@@]1(O)C(=O)OCc2c1cc1n(c2=O)Cc2cc3ccccc3nc2-1; active
CCCN(C(=O)c1ccccc1)[C@H]1CC2=CC(=O)O[C@@]23C[C@@H]1N1CCCC[C@@H]13; inactive

# next compound below
*Q* Could you check what this test reported for `CCCN(C(=O)[C@H]1CCC[C@@H](C(=O)N(CCC)[C@H]2CC3=CC(=O)O[C@@]34C[C@@H]2N2CCCC[C@@H]24)C1)[C@@H]1CC2=CC(=O)O[C@@]23C[C@@H]1N1CCCC[C@@H]13` ?
*A* inactive
